// data source = patent US20080103170A1

- Assayed Target: α4 nAChR (Rattus norvegicus, UniProt P09483+P12390)
- Sequence (P12390 25-500): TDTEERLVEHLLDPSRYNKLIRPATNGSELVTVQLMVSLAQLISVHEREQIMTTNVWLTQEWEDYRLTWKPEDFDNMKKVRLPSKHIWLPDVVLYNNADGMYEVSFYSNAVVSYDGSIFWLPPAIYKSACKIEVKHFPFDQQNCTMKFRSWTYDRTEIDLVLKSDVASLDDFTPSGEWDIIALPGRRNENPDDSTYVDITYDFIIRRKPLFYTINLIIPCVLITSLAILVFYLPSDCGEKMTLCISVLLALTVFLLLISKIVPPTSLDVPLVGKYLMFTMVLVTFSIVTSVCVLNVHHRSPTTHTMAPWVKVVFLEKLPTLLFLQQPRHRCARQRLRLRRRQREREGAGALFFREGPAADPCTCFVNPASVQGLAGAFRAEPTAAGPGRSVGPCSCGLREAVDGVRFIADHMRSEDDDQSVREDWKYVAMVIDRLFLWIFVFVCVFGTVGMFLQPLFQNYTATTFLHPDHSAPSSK
- Sequence (P09483 31-630): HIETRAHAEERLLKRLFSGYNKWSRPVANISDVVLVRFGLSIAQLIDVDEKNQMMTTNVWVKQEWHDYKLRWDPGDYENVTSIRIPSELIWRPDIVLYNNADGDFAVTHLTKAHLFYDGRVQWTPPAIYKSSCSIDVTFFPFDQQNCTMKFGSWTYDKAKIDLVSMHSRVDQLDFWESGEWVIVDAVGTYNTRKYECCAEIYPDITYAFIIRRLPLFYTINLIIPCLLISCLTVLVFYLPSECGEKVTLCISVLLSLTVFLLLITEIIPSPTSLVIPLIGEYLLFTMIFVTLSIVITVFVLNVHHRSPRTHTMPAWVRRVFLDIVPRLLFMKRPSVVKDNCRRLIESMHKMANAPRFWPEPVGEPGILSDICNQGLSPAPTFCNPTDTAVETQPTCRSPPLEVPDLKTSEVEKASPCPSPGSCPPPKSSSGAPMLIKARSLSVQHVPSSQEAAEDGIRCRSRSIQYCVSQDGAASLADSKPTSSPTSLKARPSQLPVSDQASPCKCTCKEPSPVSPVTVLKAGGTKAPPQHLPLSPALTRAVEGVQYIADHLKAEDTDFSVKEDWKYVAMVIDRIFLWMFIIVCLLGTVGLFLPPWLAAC
- Assay Procedure: Affinity at α4 nAChR by [125I]-IPH binding to rat cortical membranes
- Run Parameters: saturation curves fitted to a one site model
Readout Label: Kd (nM)
Use nM as the unit, but write only the number.

The recorded Kd for Ic1ccc(C2CC3CCC2N3)cn1 (racemic) [[^125I]-IPH] is 0.064
